pIC50 values recorded for 72 kDa type IV collagenase (Rat, UniProt P33436)
pIC50: −log10 of the molar value.
property-measured: pIC50

COc1ccc(Nc2nc(Nc3ccc(OC)cc3)nc(-n3nc(-c4ccc(NS(=O)(=O)c5ccc(C)cc5)cc4)cc3-c3ccc(OC)cc3)n2)cc1    7.73
COc1ccc(-c2cc(-c3ccc(NS(=O)(=O)c4ccc(C)cc4)cc3)nn2-c2nc(Nc3ccccc3)nc(Nc3ccccc3)n2)cc1    6.91
COc1ccc(-c2cc(-c3ccc(NS(=O)(=O)c4ccc(C)cc4)cc3)nn2-c2nc(Nc3ccc([N+](=O)[O-])cc3)nc(Nc3ccc([N+](=O)[O-])cc3)n2)cc1    7.12
COc1ccc(-c2cc(-c3ccc(NS(=O)(=O)c4ccc(C)cc4)cc3)nn2-c2nc(N3CCOCC3)nc(N3CCOCC3)n2)cc1    7.37

[A] COc1ccc(-c2cc(-c3ccc(NS(=O)(=O)c4ccc(C)cc4)cc3)nn2-c2nc(Nc3ccc(O)cc3)nc(Nc3ccc(O)cc3)n2)cc1
[B] COc1ccc(-c2cc(-c3ccc(NS(=O)(=O)c4ccc(C)cc4)cc3)nn2-c2nc(Nc3ccccc3C)nc(Nc3ccccc3C)n2)cc1
Request: Please indicate which has the smaller reported pIC50: A , or B . Please indicate the selected item by its label.
Response: B
(B: 7.17, A: 8.09)
